Experiment: Cytotoxicity against human Huh7.5 cells by MTT assay
Format: cell-based, Huh-7
measured-property: CC50 (µM)
Write the number in µM without appending the unit.

INSERT INTO results (compound, measured_property, reported_measurement) VALUES
  ('CC(C)(C)C(=O)N(CCCCCCN1C[C@H](O)[C@@H](O)[C@H](O)[C@H]1CO)C12CC3CC(CC(C3)C1)C2', 'CC50', 170);

Looking up CC1CCCCC1N(CCCCCCN1C[C@H](O)[C@@H](O)[C@H](O)[C@H]1CO)C(=O)C(C)(C)C (some centres undefined) , I see its CC50 listed as 310

* * *

Experiment: Cytotoxicity against BHK cells by MTT assay
Assay type: cell-based, Mesocricetus auratus
Details: hamster
Entries and their CC50 values follow.

INSERT INTO results (molecule, reported_measurement) VALUES
  ('CC(C)(C)C(=O)N(CCCCCCN1C[C@H](O)[C@@H](O)[C@H](O)[C@H]1CO)C1CCCC1', '> 500 µM'),
  ('CC1CCCCC1N(CCCCCCN1C[C@H](O)[C@@H](O)[C@H](O)[C@H]1CO)C(=O)C(C)(C)C (some centres undefined)', '> 500 µM'),
  ('CC(C)(C)C(=O)N(CCCCCCN1C[C@H](O)[C@@H](O)[C@H](O)[C@H]1CO)C1CCCCC1', '> 500 µM'),
  ('CC(C)(C)C(=O)N(CCCCCCN1C[C@H](O)[C@@H](O)[C@H](O)[C@H]1CO)C1CCCCCCC1', '208 µM'),
  ('CC(C)(C)C(=O)N(CCCCCCN1C[C@H](O)[C@@H](O)[C@H](O)[C@H]1CO)C1C2CC3CC(C2)CC1C3 (some centres undefined)', '192 µM');

Reported CC50 for CC(C)(C)C(=O)N(CCCCCCN1C[C@H](O)[C@@H](O)[C@H](O)[C@H]1CO)c1ccc(F)cc1F was > 500 µM

// field: CC50; key: CC(C)(C)C(=O)N(CCCCCCN1C[C@H](O)[C@@H](O)[C@H](O)[C@H]1CO)c1cc(F)ccc1F ; value = > 500 µM

Looking up CC(C)(C)C(=O)N(CCCCCCN1C[C@H](O)[C@@H](O)[C@H](O)[C@H]1CO)C1CCCCCC1 , I see its CC50 listed as > 500 µM

* * *

Assay: Cytotoxicity against human Huh7.5 cells by MTT assay
Format: cell-based, Huh-7
Below is a list of entries, each paired with its recorded CC50 value.
The reply should contain only the number, in µM.

Solved cases (3 shown):
INSERT INTO results (compound, unit_symbol, reported_measurement) VALUES
  ('CC(C)(C)C(=O)N(CCCCCCN1C[C@H](O)[C@@H](O)[C@H](O)[C@H]1CO)C1C2CC3CC(C2)CC1C3 (stereo partly drawn)', 'µM', 125),
  ('CC(C)(C)C(=O)N(CCCCCCN1C[C@H](O)[C@@H](O)[C@H](O)[C@H]1CO)C1CCCCC1', 'µM', 500),
  ('CC(C)(C)C(=O)N(CCCCCCN1C[C@H](O)[C@@H](O)[C@H](O)[C@H]1CO)C1CCCCCCC1', 'µM', 150);

Okay, now this compound:
The recorded CC50 for CC1CCCCC1N(CCCCCCN1C[C@H](O)[C@@H](O)[C@H](O)[C@H]1CO)C(=O)OC(C)(C)C (stereo partly drawn) is 240
